target: Voltage-gated potassium channel, IKs; KCNQ1(Kv7.1)/KCNE1(MinK) (Homo sapiens, UniProt P15382+P51787); experiment: Antagonist activity at KCNQ1/MINK expressed in CHO cells assessed as inhibition of KCl-induced 86Rb+ efflux incubated for 10 mins prior to KCl-induction by liquid scintillation counting
Sequence (P51787 whole entry): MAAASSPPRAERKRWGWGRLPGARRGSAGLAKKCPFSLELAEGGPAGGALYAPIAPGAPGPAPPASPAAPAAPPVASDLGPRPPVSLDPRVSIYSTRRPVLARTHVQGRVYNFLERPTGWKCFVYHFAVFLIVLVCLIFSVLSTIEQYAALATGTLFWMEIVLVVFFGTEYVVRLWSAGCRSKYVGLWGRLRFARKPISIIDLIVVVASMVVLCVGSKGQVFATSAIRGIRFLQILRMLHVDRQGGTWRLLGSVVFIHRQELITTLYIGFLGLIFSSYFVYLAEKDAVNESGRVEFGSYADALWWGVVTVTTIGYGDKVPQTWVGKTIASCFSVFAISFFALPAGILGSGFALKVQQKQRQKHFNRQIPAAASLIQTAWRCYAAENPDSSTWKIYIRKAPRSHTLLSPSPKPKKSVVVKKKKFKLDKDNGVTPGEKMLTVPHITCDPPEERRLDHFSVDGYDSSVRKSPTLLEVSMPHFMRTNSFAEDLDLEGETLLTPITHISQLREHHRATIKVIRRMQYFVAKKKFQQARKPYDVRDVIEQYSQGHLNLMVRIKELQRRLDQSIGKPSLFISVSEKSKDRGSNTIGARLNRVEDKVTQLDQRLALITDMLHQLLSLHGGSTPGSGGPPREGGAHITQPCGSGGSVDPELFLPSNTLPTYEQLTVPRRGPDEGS
Result type: IC50 (µM)
Just the number in µM, nothing appended.

Enquiry: Need IC50, item O=C(Nc1ccc(Cl)nc1)c1cccc(F)c1
Return: 77

Enquiry: So what does the record say about IC50 for O=C(Nc1ccc(Cl)nc1)c1ccc(F)c(C(F)(F)F)c1 ?
Return: 3.4

Enquiry: Would you mind telling me what IC50 value was observed for Cc1ccc(C(=O)Nc2cnc(Cl)nc2)cc1F ?
Return: 93

Enquiry: Suppose we examine the molecule O=C(Nc1ccc(Cl)nc1)c1ccc(F)cc1 ; what IC50 value has been reported?
Return: 66

Enquiry: Param item = O=C(Nc1ccc(Cl)nc1)c1ccc(F)c(Cl)c1 ; retrieve measured IC50.
Return: 22

Enquiry: Which IC50 is reported for this molecule? O=C(Nc1ccc(Cl)nc1)c1ccc(C(F)(F)F)cc1
Return: 2.9

Enquiry: Bench note: what IC50 did CC(C)Sc1ccc(C(=O)Nc2ccc(Cl)nc2)cc1F show?
Return: 5.8

Enquiry: Sample O=C(Nc1cnc(Cl)nc1)c1ccc(Cl)c(F)c1 — what was its IC50?
Return: 49

Enquiry: Reported IC50, molecule O=C(Nc1ccc(Cl)nc1)c1cccc(C(F)(F)F)c1 : ____
Return: 5.8

Enquiry: If you can, please state the reported IC50 value of O=C(Nc1ccc(Cl)nc1)c1ccc(Cl)cc1 .
Return: 15

Enquiry: # get_value(readout='IC50', item= O=C(Nc1cnc(Cl)nc1)c1cccc(Cl)c1 )
Return: 78
